Test system: mice
Assay: Neuropharmacological Assay (SmartCube): automated behavioral signature of compound-treated mice compared with a database of reference drug classes
Type: in vivo
Conditions: SmartCube class probability, 3.0 mg/kg i.p., 15 min before test
Counter-ions that a name gives are not always drawn.
measurementLabel: SH

> print(dat)
                                    compound    measured
 1  c1scc2c1CCC(NCC1CC1)C2 (single isomer, unassigned) [Compound 159, hydrochloride]  ND (^ <4%)
 2  CNC1CCCc2cscc2C1 (single isomer, unassigned) [Compound 170, hydrochloride]  ND (^ <4%)
 3  Cc1cc2c(s1)CCC(N)C2 (centres unmarked) [Compound 185, hydrochloride]  ND (^ <4%)
 4  CNC1CCc2sc(Cl)c(Cl)c2C1 (centres unmarked) [Compound 220, hydrochloride]  ND (^ <4%)
 5  CNC1(C)COc2c(C)csc2C1 (racemic) [Compound 238, hydrochloride]  ND (^ <4%)
 6  CNC1(C)CCc2c(C(F)(F)F)csc2C1.Cl (single isomer, unassigned) [Compound 262]  ND (^ <4%)
 7  CNC1COc2c(C3CC3)csc2C1 (centres unmarked) [Compound 235, hydrochloride]  ND (^ <4%)
 8  c1scc2c1CCC(NCC1CC1)C2 (single isomer, unassigned) [Compound 158, hydrochloride]  ND (^ <4%)
 9  CNC1CCc2c(sc(Cl)c2C)C1 (single isomer, unassigned) [Compound 148, hydrochloride]  ND (^ <4%)
10  CNC1(C)CCc2sccc2C1 (single isomer, unassigned) [Compound 178, hydrochloride]  ND (^ <4%)

Consider now this further compound.
get_value(item= NC1CCc2scc(C(F)(F)F)c2C1 (centres unmarked) [Compound 186, hydrochloride] , readout=SH) returns ND (^ <4%)

* * *

Test system: mice
Assay: Neuropharmacological Assay (SmartCube): automated behavioral signature of compound-treated mice compared with a database of reference drug classes
Format: in vivo
Conditions: probability that activity matches this class of agents, 3.0 mg/kg i.p., 15 min before test, hydrochloride, 3 mg/kg
Description: Neurosci. 2011 Sep. 9; 5: 103 (doi: 10.3389/fnins.2011.00103) (“Roberds”). […] To facilitate testing of multiple compounds for behavioral effects relevant to psychiatric disease, PsychoGenics, Inc. (Tarrytown, NY, “PGI”) developed SmartCube™ an automated system in which behaviors of compound-treated mice are captured by digital video and analyzed with computer algorithms. […]
Counter-ions that a name gives are not always drawn.
measurementLabel: SH

> print(dat)
                                   compound  targetorsystem    measured
1  CNC1CCCc2ccsc2C1.Cl (single isomer, unassigned) [Compound 26]            mice     + (≥4%)
2  CNC1CCCc2ccsc2C1.Cl (single isomer, unassigned) [Compound 25]            mice  ND (^ <4%)
3  CNC1CCc2c(C)sc(C)c2C1 (single isomer, unassigned) [Compound 31, hydrochloride]            mice  ND (^ <4%)
4  NC1COc2ccsc2C1 (single isomer, unassigned) [Compound 136, hydrochloride]            mice  ND (^ <4%)
5  CNC1CCc2c(F)csc2C1 (single isomer, unassigned) [Compound 83, hydrochloride]            mice  ND (^ <4%)

Consider now this further compound.
get_value(item= CNC1CCc2c(C)sc(C)c2C1 (single isomer, unassigned) [Compound 30, hydrochloride] , readout=SH) returns + (≥4%)

Data origin: patent US20260274814A1
